# TESTED_ON: DYRK1A (Homo sapiens, UniProt Q13627)
# ASSAY_PROCEDURE: DYRK1A kinase inhibition (Woodtide substrate, buffer A)
# CONDITION_DETAILS: 15 μM ATP, 30° C., recombinant GST fusion; read-out: IC50 Kinases DYRK1A
METRIC_NAME: IC50

Field: example entries. Status: answers known.
- Oc1cccc(-c2cnc3cnc(-c4cccc(O)c4)nc3c2)c1: 3.4 µM
- Oc1ccc(Nc2ncc3ncc(-c4ccccc4O)cc3n2)cc1: > 10 µM
- Oc1ccc(-c2ncc3ncc(Nc4ncccn4)cc3n2)cc1: > 10 µM
- Cc1ncccc1Nc1cnc2cnc(-c3ccc(O)cc3)nc2c1: > 10 µM
- Oc1ccc(-c2ncc3ncc(-c4ccsc4)cc3n2)cc1: > 10 µM
- Oc1ccc(-c2ncc3ncc(-c4cccnc4)cc3n2)cc1: > 10 µM

Now examine the next entry.
Query :: Given Oc1ccccc1-c1cnc2cnc(-c3ccccc3O)nc2c1 , state its recorded IC50.
Result :: > 10 µM
